# System: DU-145
# ASSAY DETAILS: NCI tumour cell line growth inhibition, 48 h
The source made the active and inactive calls. No stated cut-off is given here; in the data, active = GI50 up to about 1.1 µM and inactive = higher.
The reply should name one outcome from active, inactive

Example cases with answers are listed next.
- COMPOUND: "O=[N+]([O-])c1ccc(Cl)c(CNc2ncnc3c2ncn3C2CCCCO2)c1 (stereo unspecified)"
  TARGET OR SYSTEM: "DU-145"
  CLASS LABEL: "inactive"
- COMPOUND: "Cc1cc(S(=O)(=O)N2CCNNC2=O)c(S)cc1Cl"
  TARGET OR SYSTEM: "DU-145"
  CLASS LABEL: "inactive"
- COMPOUND: "Cc1nccn1S(=O)(=O)c1ccc(Cl)cc1"
  TARGET OR SYSTEM: "DU-145"
  CLASS LABEL: "inactive"
- COMPOUND: "S=P(C1CCCCC1)(C1CCCCC1)C(c1cccnc1)N1CCCC1 (stereo unspecified)"
  TARGET OR SYSTEM: "DU-145"
  CLASS LABEL: "inactive"
- COMPOUND: "c1ccc(C/C(=N\\Nc2nc3ccccc3o2)c2ccccn2)cc1"
  TARGET OR SYSTEM: "DU-145"
  CLASS LABEL: "active"

## Task Hey, what did the test say about COc1ccc(C2c3cc4c(c(OC)c3CC3OCC(=O)C32)OCO4)cc1OC (stereo unspecified) ?
## Result active

---

# Test system: COLO 205
# ASSAY DETAILS: NCI tumour cell line growth inhibition, 48 h
Calls of active or inactive are those of the source. No stated cut-off is given here; in the data, active = GI50 up to about 1.1 µM and inactive = higher.
# reported GI50; entries follow

Some molecules with recorded GI50:
- MOLECULE: "O=c1cc(-c2ccccc2)oc2cc(OCCCOc3ccc4c(=O)cc(-c5ccccc5)oc4c3)ccc12"
  TEST READOUT: "GI50"
  VAL: "> 100 µM (inactive)"
- MOLECULE: "CC(C)(C)c1cc(S(=O)(=O)O)c2oc(-c3ccccc3)cc(=O)c2c1"
  TEST READOUT: "GI50"
  VAL: "> 100 µM (inactive)"
- MOLECULE: "Cc1cc(S(=O)(=O)N2CCNNC2=O)c(S)cc1Cl"
  TEST READOUT: "GI50"
  VAL: "> 100 µM (inactive)"
- MOLECULE: "CC(NC1=CC(=O)c2cccnc2C1=O)C(O)c1ccccc1 (stereo not given)"
  TEST READOUT: "GI50"
  VAL: "1.86 µM (inactive)"
- MOLECULE: "O=[N+]([O-])c1ccc(Cl)c(CNc2ncnc3c2ncn3C2CCCCO2)c1 (stereo not given)"
  TEST READOUT: "GI50"
  VAL: "42.2 µM (inactive)"

## Task Could you share what GI50 was measured for "C=CCN1C(=O)/C(=C/c2ccc(C)cc2)N=C1SC/C=C/C" , tested on COLO 205?
## Result 36.5 µM (inactive)

## Task Query GI50 on COLO 205 for Cc1cc(O)c(C(O)c2ccccn2)cc1O (stereo not given)
## Result 10 µM (inactive)

## Task Which GI50 is reported with COLO 205 for this entry: "COc1cc(Nc2nc3c(N)cc(C(F)(F)F)cc3nc2-c2ccccc2)cc(OC)c1OC" ?
## Result 99.3 µM (inactive)

## Task Short answer please: GI50, COLO 205, entry CCC/C(=N\NC(=O)c1cc2ccccc2cc1O)C(CC)C(=O)CCC(=O)N(Cc1ccccc1)Cc1ccccc1 (stereo not given)
## Result 28.5 µM (inactive)

## Task Request - read-out GI50 | tested on COLO 205 | molecule "Nc1c(-c2nc3ccccc3[nH]2)sc(=S)n1-c1ccccc1"
## Result > 100 µM (inactive)
